Below is a list of entries, each paired with its recorded half-life value.
# Assay Name: in vitro
# Format: in vitro ADME, human
# Assay Context: pH 7.4; human microsomes; read-out: t1/2 in human microsomes

q: So what's the measured half-life for this one? "CCCc1ccc(-n2c(-c3ccc(Cl)cc3)cc(CN3CCOCC3)c2C)cc1"
a: > 30 min

q: So what's the measured half-life for this one? "CCc1ccc(-n2c(-c3ccc(Cl)cc3)cc(CN3CCOCC3)c2C)cc1"
a: > 30 min

q: So what's the measured half-life for this one? "COc1ccc(-c2cc(CN3CCOCC3)c(C)n2-c2ccc(C)cc2)cc1"
a: > 30 min

q: So what's the measured half-life for this one? "Cc1ccc(-c2cc(CN3CCOCC3)c(C)n2-c2ccc(Cl)cc2)cc1"
a: > 30 min

q: So what's the measured half-life for this one? "Cc1c(CN2CCOCC2)cc(-c2ccc(C(C)C)cc2)n1-c1ccc(Cl)cc1"
a: > 30 min

q: So what's the measured half-life for this one? "CSc1ccc(-c2cc(CN3CCOCC3)c(C)n2-c2ccc(F)cc2)cc1"
a: > 30 min

q: So what's the measured half-life for this one? "CCCc1ccc(-c2cc(CN3CCOCC3)c(C)n2-c2ccc(Cl)cc2)cc1"
a: > 30 min

q: So what's the measured half-life for this one? "Cc1c(CN2CCOCC2)cc(-c2ccc(Cl)cc2)n1-c1ccc(C(C)C)cc1"
a: > 30 min

q: So what's the measured half-life for this one? "CCc1ccc(-c2cc(CN3CCOCC3)c(C)n2-c2ccc(F)cc2)cc1"
a: > 30 min

---

# Tested on: HepG2 cells
# Assay Context: human, 48 h
Binary call on Tox50, cytotoxicity in HepG2 cells: MET from 10 µM upward, NOT MET beneath that.

- Structure As Smiles: "Cc1ccc(-c2cc(CN3CCSCC3)c(C)n2-c2ccc(F)cc2)cc1"
  Classification: "MET"

q: Please tell me: is the molecule "CCc1ccc(-n2c(-c3ccc(OC)cc3)cc(CN3CCOCC3)c2C)cc1" at or over 10 µM in terms of Tox50, cytotoxicity in HepG2 cells?
a: MET

q: Please tell me: is the molecule "Cc1ccc(-c2cc(CN3CCOCC3)c(C)n2-c2ccc(Cl)cc2)cc1" at or over 10 µM in terms of Tox50, cytotoxicity in HepG2 cells?
a: MET

q: Please tell me: is the molecule "COc1ccc(-n2c(-c3ccc(C)cc3)cc(CN3CCOCC3)c2C)cc1" at or over 10 µM in terms of Tox50, cytotoxicity in HepG2 cells?
a: MET

q: Please tell me: is the molecule "CCc1ccc(-c2cc(CN3CCOCC3)c(C)n2-c2ccc(F)cc2)cc1" at or over 10 µM in terms of Tox50, cytotoxicity in HepG2 cells?
a: MET

---

# Assayed Target: human serum albumin (HSA) (Homo sapiens, UniProt P02768)
# Sequence (P02768 25-609): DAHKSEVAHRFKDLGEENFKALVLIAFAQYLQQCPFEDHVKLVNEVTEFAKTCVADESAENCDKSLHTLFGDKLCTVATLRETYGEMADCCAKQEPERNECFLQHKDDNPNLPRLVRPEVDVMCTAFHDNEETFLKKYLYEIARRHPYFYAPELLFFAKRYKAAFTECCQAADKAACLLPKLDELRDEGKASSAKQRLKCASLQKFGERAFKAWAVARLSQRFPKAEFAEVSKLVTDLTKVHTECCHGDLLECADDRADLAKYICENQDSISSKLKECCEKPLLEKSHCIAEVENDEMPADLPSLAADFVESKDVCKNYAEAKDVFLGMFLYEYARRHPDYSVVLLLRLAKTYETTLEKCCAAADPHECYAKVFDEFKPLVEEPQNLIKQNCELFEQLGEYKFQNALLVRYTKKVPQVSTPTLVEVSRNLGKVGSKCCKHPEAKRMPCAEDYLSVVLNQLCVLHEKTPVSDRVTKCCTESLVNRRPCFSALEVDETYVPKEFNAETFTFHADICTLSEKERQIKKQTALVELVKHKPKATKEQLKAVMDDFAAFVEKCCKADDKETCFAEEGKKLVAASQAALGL
# Assay type: in vitro ADME
# Assay Context: human, pH 7.4
Experimental Readout: HSA (%) binding

- Structure As Smiles: "Cc1ccc(-c2cc(CN3CCOCC3)c(C)n2-c2ccc(F)cc2)cc1"
  Assayed Target: "human serum albumin (HSA) (Homo sapiens, UniProt P02768)"
  Observed Result: "96.72%"
- Structure As Smiles: "CSc1ccc(-c2cc(CN3CCSCC3)c(C)n2-c2ccc(F)cc2)cc1"
  Assayed Target: "human serum albumin (HSA) (Homo sapiens, UniProt P02768)"
  Observed Result: "98.04%"
- Structure As Smiles: "CCc1ccc(-n2c(-c3ccc(Cl)cc3)cc(CN3CCOCC3)c2C)cc1"
  Assayed Target: "human serum albumin (HSA) (Homo sapiens, UniProt P02768)"
  Observed Result: "98.03%"
- Structure As Smiles: "Cc1ccc(-c2cc(CN3CCSCC3)c(C)n2-c2ccc(F)cc2)cc1"
  Assayed Target: "human serum albumin (HSA) (Homo sapiens, UniProt P02768)"
  Observed Result: "97.91%"
- Structure As Smiles: "Cc1c(CN2CCOCC2)cc(-c2ccc(C(C)C)cc2)n1-c1ccc(F)cc1"
  Assayed Target: "human serum albumin (HSA) (Homo sapiens, UniProt P02768)"
  Observed Result: "97.71%"
- Structure As Smiles: "CCCc1ccc(-c2cc(CN3CCOCC3)c(C)n2-c2ccc(Cl)cc2)cc1"
  Assayed Target: "human serum albumin (HSA) (Homo sapiens, UniProt P02768)"
  Observed Result: "98.00%"

q: Lab note: need HSA (%) binding for "COc1ccc(-n2c(-c3ccc(C)cc3)cc(CN3CCOCC3)c2C)cc1" on human serum albumin (HSA) (Homo sapiens, UniProt P02768), anyone have it?
a: 95.87%

q: Lab note: need HSA (%) binding for "CSc1ccc(-c2cc(CN3CCOCC3)c(C)n2-c2ccc(F)cc2)cc1" on human serum albumin (HSA) (Homo sapiens, UniProt P02768), anyone have it?
a: 97.00%

q: Lab note: need HSA (%) binding for "Cc1ccc(-n2c(-c3ccc(Cl)cc3)cc(CN3CCOCC3)c2C)cc1" on human serum albumin (HSA) (Homo sapiens, UniProt P02768), anyone have it?
a: 97.62%

---

# Assay Name: physchem
# Assay Context: pH 2
Binary call on chromatographic logD: condition met from 1 upward, condition not met beneath that.

- Structure As Smiles: "CCc1ccc(-c2cc(CN3CCOCC3)c(C)n2-c2ccc(Cl)cc2)cc1"
  Classification: "condition met"

q: Please tell me: is the molecule "Cc1c(CN2CCOCC2)cc(-c2ccc(Cl)cc2)n1-c1ccc(C(C)C)cc1" at or over 1 in terms of chromatographic logD?
a: condition met

q: Please tell me: is the molecule "CSc1ccc(-c2cc(CN3CCSCC3)c(C)n2-c2ccc(F)cc2)cc1" at or over 1 in terms of chromatographic logD?
a: condition met

q: Please tell me: is the molecule "Cc1c(CN2CCN(C)CC2)cc(-c2ccc(Cl)cc2)n1-c1ccc(Cl)cc1" at or over 1 in terms of chromatographic logD?
a: condition not met

q: Please tell me: is the molecule "Cc1ccc(-n2c(-c3ccc(Cl)cc3)cc(CN3CCOCC3)c2C)cc1" at or over 1 in terms of chromatographic logD?
a: condition met

---

Experimental Readout: melting point (°C)
Hi! Could you send only the number? It should be in °C, unit omitted.

The following compounds have reported results that may help.
- Structure As Smiles: "CCc1ccc(-c2cc(CN3CCOCC3)c(C)n2-c2ccc(Cl)cc2)cc1"
  Reading Unit: "°C"
  melting point: 134
- Structure As Smiles: "CCc1ccc(-n2c(-c3ccc(OC)cc3)cc(CN3CCOCC3)c2C)cc1"
  Reading Unit: "°C"
  melting point: 72
- Structure As Smiles: "CCCc1ccc(-n2c(-c3ccc(Cl)cc3)cc(CN3CCOCC3)c2C)cc1"
  Reading Unit: "°C"
  melting point: 94
- Structure As Smiles: "COc1ccc(-c2cc(CN3CCOCC3)c(C)n2-c2ccc(C)cc2)cc1"
  Reading Unit: "°C"
  melting point: 115
- Structure As Smiles: "CCCc1ccc(-c2cc(CN3CCOCC3)c(C)n2-c2ccc(Cl)cc2)cc1"
  Reading Unit: "°C"
  melting point: 113

q: So what's the measured melting point for this one? "Cc1c(CN2CCOCC2)cc(-c2ccc(Cl)cc2)n1-c1ccc(C(C)C)cc1"
a: 113

---

Below is a list of entries, each paired with its recorded chromatographic logD value.
# Assay Name: physchem
# Assay Context: pH 10.5

The following compounds have reported results that may help.
- Structure As Smiles: "CCc1ccc(-c2cc(CN3CCOCC3)c(C)n2-c2ccc(F)cc2)cc1"
  Observed Result: 4.64
- Structure As Smiles: "Cc1c(CN2CCOCC2)cc(-c2ccc(C(C)C)cc2)n1-c1ccc(Cl)cc1"
  Observed Result: 5.45
- Structure As Smiles: "COc1ccc(-c2cc(CN3CCOCC3)c(C)n2-c2ccc(C)cc2)cc1"
  Observed Result: 4.11
- Structure As Smiles: "Cc1ccc(-c2cc(CN3CCSCC3)c(C)n2-c2ccc(F)cc2)cc1"
  Observed Result: 5.08
- Structure As Smiles: "CCc1ccc(-n2c(-c3ccc(Cl)cc3)cc(CN3CCOCC3)c2C)cc1"
  Observed Result: 5.36

q: So what's the measured chromatographic logD for this one? "Cc1c(CN2CCN(C)CC2)cc(-c2ccc(Cl)cc2)n1-c1ccc(Cl)cc1"
a: 5.01

q: So what's the measured chromatographic logD for this one? "CSc1ccc(-c2cc(CN3CCOCC3)c(C)n2-c2ccc(F)cc2)cc1"
a: 4.24

q: So what's the measured chromatographic logD for this one? "COc1ccc(-c2cc(CN3CCSCC3)c(C)n2-c2ccc(F)cc2)cc1"
a: 4.62

q: So what's the measured chromatographic logD for this one? "Cc1c(CN2CCOCC2)cc(-c2ccc(C(C)C)cc2)n1-c1ccc(F)cc1"
a: 4.95
